# System: OVCAR-3 ovarian
# assay method text: NCI-60 one-dose screen, 48 h (100 = growth as untreated, 0 = no growth, -100 = all killed)
# experimental setup: 10 µM unless noted
Compounds without any hit were thinned out: in the full panel of roughly 83,000, 20% have a hit.
Binary classification by growth, with 90% as an inclusive lower bound for T; all other cases are F.

| structure notation | assigned category |
| --- | --- |
| O=C(/C=C1\C=CN(CCCCCCF)c2ccccc21)n1ccc2ccccc21 | T |
| Oc1ccccc1-c1nnc(SCc2ccc(O)c3ncccc23)n1-c1ccccc1 | F |
| CCNC(=NCCCN(C)C)N/C(N)=N/c1nc2ccccc2s1 | T |
| CCNC(=O)Oc1ccc(/C(=C(/C)c2ccc(Cl)cc2)c2ccc(OCCN(C)C)cc2)cc1 | F |
| COc1cc(/C=N/n2cnc3oc(-c4ccccc4)cc3c2=N)cc(CN2CCCCC2)c1O | T |
| O=c1[nH]c(CNc2ccc(NCc3c(-c4ccccc4)no[n+]3[O-])cc2)nc2c1cnn2-c1ccccc1 | T |
| Cc1cc(NS(=O)(=O)c2ccc(-c3cnc(C4CC4)o3)cc2)ccc1I | F |
